Target or test system: T1, human CD3 on CD3+ Jurkat cells (human, UniProt P07766 23-207)
T1 construct: whole, on cells; Native CD3 complex on cells; the other CD3 chains are not specified for this assay; also called Human CD3+ Jurkat
T1 sequence (P07766 23-207): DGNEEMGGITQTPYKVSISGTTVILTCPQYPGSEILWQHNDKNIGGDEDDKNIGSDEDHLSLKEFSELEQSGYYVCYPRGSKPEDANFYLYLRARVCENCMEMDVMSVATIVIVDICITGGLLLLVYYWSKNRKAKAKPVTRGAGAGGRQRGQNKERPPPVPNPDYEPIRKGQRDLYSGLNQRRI
Protocol summary: flow cytometry, 100 nM IgG on CD3+ Jurkat cells, pH 6.0
Consider the following binders and their measured MFI pH 6.0 readings.
Answer format: numeric, MFI implied, no suffix.

| Binder | Reported value |
| --- | --- |
| SAD10319_P02_G06 (ADI-48632) (antibody, V domains shown, IgG; also called Ab15) VH: QVQLVQSGAEVKKPGASVKVSCKASGYTFTSYAMHWVRQAPGQRLEWMGWINPDTGATVYSQKFQGRVTITRDTSASTAYMELSSLRSEDTAVYYCARDAYHHYFYDVWGQGTLVTVSS VL: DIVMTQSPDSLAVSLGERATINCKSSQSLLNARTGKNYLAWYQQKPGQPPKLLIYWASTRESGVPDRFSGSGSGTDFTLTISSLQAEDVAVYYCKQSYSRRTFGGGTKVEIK | 1620 |
| SAD10320_P01_B01 (ADI-48643) (antibody, V domains shown, IgG; also called Ab46) VH: QVQLVQSGAEVKKPGASVKVSCKASGFNIKDYYMHWVRQAPGQRLEWMGWIDLENANTIYDAKFQGRVTITRDTSASTAYMELSSLRSEDTAVYYCARDAYGHIFYDVWGQGTLVTVSS VL: DIVMTQSPDSLAVSLGERATINCKSSQSLLNARTGKNYLAWYQQKPGQPPKLLIYWASTRESGVPDRFSGSGSGTDFTLTISSLQAEDVAVYYCKQSYVHRTFGGGTKVEIK | 4200 |
| SAD10318_P01_C01 (ADI-48575) (antibody, V domains shown, IgG; also called Ab113) VH: QVQLVQSGAEVKKPGASVKVSCKASGFNIKDYYMHWVRQAPGQRLEWMGWIDLENANTIYDAKFQGRVTITRDTSASTAYMELSSLRSEDTAVYYCARDAYHRYHYDVWGQGTLVTVSS VL: DIVMTQSPDSLAVSLGERATINCKSSQSLLNAHTHKNYLAWYQQKPGQPPKLLIYWASTRESGVPDRFSGSGSGTDFTLTISSLQAEDVAVYYCKQSHSHRTFGGGTKVEIK | 3110 |
| SAD10318_P04_D10 (ADI-48613) (antibody, V domains shown, IgG; also called Ab211) VH: QVQLVQSGAEVKKPGASVKVSCKASGFNIKDYYMHWVRQAPGQRLEWMGWIDLENANTIYDAKFQGRVTITRDTSASTAYMELSSLRSEDTAVYYCARDAYGHYHYDVWGQGTLVTVSS VL: DIVMTQSPDSLAVSLGERATINCKSSQSLLHARTGKNHLAWYQQKPGQPPKLLIYWASTRESGVPDRFSGSGSGTDFTLTISSLQAEDVAVYYCKQSYSRRTFGGGTKVEIK | 52 |

Entry SAD10318_P02_H04 (ADI-48594) (antibody, V domains shown, IgG; also called Ab169) VH: QVQLVQSGAEVKKPGASVKVSCKASGFNIKDYYMHWVRQAPGQRLEWMGWIDLENANTIYDAKFQGRVTITRDTSASTAYMELSSLRSEDTAVYYCARDAYHRYFYDHWGQGTLVTVSS VL: DIVMTQSPDSLAVSLGERATINCKSSQSLLHARTGHNYLAWYQQKPGQPPKLLIYWASTRESGVPDRFSGSGSGTDFTLTISSLQAEDVAVYYCKQSYSRRTFGGGTKVEIK ; MFI pH 6.0 = 4260

Entry SAD10318_P02_C05 (ADI-48597) (antibody, V domains shown, IgG; also called Ab180) VH: QVQLVQSGAEVKKPGASVKVSCKASGFNIKDYYMHWVRQAPGQRLEWMGWIDLENANTIYDAKFQGRVTITRDTSASTAYMELSSLRSEDTAVYYCARDAHHRYFYDVWGQGTLVTVSS VL: DIVMTQSPDSLAVSLGERATINCKSSQSLLNARTGHNHLAWYQQKPGQPPKLLIYWASTRESGVPDRFSGSGSGTDFTLTISSLQAEDVAVYYCKQSHSHRTFGGGTKVEI ; MFI pH 6.0 = 1320

Entry SAD10318_P01_G01 (ADI-48579) (antibody, V domains shown, IgG; also called Ab215) VH: QVQLVQSGAEVKKPGASVKVSCKASGFNIKDYYMHWVRQAPGQRLEWMGWIDLENANTIYDAKFQGRVTITRDTSASTAYMELSSLRSEDTAVYYCARDAHGHYFYDVWGQGTLVTVSS VL: DIVMTQSPDSLAVSLGERATINCKSSQSLLHAHTGKNYLAWYQQKPGQPPKLLIYWASTRESGVPDRFSGSGSGTDFTLTISSLQAEDVAVYYCKQSHSHRTFGGGTKVEIK ; MFI pH 6.0 = 2070

Entry SAD10318_P01_G02 (ADI-48586) (antibody, V domains shown, IgG; also called Ab25) VH: QVQLVQSGAEVKKPGASVKVSCKASGFNIKDYYMHWVRQAPGQRLEWMGWIDLENANTIYDAKFQGRVTITRDTSASTAYMELSSLRSEDTAVYYCARDAYHHYFYDVWGQGTLVTVSS VL: DIVMTQSPDSLAVSLGERATINCKSSQSLLNARTGKNHLAWYQQKPGQPPKLLIYWASTRESGVPDRFSGSGSGTDFTLTISSLQAEDVAVYYCKQSYSHRTFGGGTKVEIK ; MFI pH 6.0 = 1090

Entry SAD10319_P01_F03 (ADI-48627) (antibody, V domains shown, IgG; also called Ab246) VH: QVQLVQSGAEVKKPGASVKVSCKASGYTFESYDMHWVRQAPGQRLEWMGWINAGTGATVYSQKFQGRVTITRDTSASTAYMELSSLRSEDTAVYYCARDAYHHYFYDVWGQGTLVTVSS VL: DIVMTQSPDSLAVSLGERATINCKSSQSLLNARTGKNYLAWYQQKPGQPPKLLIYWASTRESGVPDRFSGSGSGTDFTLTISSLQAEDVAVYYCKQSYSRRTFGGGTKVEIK ; MFI pH 6.0 = 335

Entry SAD10318_P04_D11 (ADI-48616) (antibody, V domains shown, IgG; also called Ab219) VH: QVQLVQSGAEVKKPGASVKVSCKASGFNIKDYYMHWVRQAPGQRLEWMGWIDLENANTIYDAKFQGRVTITRDTSASTAYMELSSLRSEDTAVYYCARDAYGHYFYDVWGQGTLVTVSS VL: DIVMTQSPDSLAVSLGERATINCKSSQSLLNARTGHNHLAWYQQKPGQPPKLLIYWASTRESGVPDRFSGSGSGTDFTLTISSLQAEDVAVYYCHQSYSHRTFGGGTKVEIK ; MFI pH 6.0 = 36

Where these numbers come from: patent US20220380463A1
